Subject Of Test: chymotrypsin-like proteasome activity (Homo sapiens, UniProt P28074)
Sequence (P28074 60-263): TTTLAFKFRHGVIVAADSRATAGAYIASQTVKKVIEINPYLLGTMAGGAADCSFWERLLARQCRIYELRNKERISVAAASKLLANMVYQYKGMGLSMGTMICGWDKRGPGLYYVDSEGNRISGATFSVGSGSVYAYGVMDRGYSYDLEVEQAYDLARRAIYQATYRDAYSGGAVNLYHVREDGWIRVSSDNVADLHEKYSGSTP
Procedure Text: Proteasome inhibition assay
Format: biochemical
Measurement Parameters: read-out: Proteasome Inhibition IC50; Suc-LLVY-AMC 10 μM
pIC50: −log10 of the molar value.
Measured Endpoint: pIC50

Per the records, this molecule ( CO[C@H]1[C@H]2C(=O)c3c(O)c4c(c(CC=C(C)C)c3O[C@@]23[C@@H]2C[C@H]1C(=O)[C@]3(C/C=C(/C)C(=O)O)OC2(C)C)OC(C)(C)C=C4 ) has pIC50 equal to < 5.00

For this molecule ( C=C(C)C(O)Cc1c2c(c(O)c3c1O[C@]14C(=C[C@H]5C[C@@H]1C(C)(C)O[C@@]4(C/C=C(\C)C(=O)O)C5=O)C3=O)C=CC(C)(C)O2 (some centres unmarked) ), measured pIC50 is < 5.00

###

Subject Of Test: chymotrypsin-like proteasome activity (Homo sapiens)
Procedure Text: Proteasome inhibition assay
Type: biochemical
Measured Endpoint: IC50 (nM)
Dear colleague, please return just the value in nM, with no unit written.

Entry O=C1c2c(O)cc(O)cc2O[C@H](c2ccc(O)cc2)[C@H]1c1c(O)cc(O)c2c(=O)cc(-c3ccc(O)c(O)c3)oc12 [Compound 8, morelloflavone] under chymotrypsin-like proteasome activity (Homo sapiens) had IC50 of 1300

###

Subject Of Test: chymotrypsin-like proteasome activity (Homo sapiens, UniProt P28074)
Sequence (P28074 60-263): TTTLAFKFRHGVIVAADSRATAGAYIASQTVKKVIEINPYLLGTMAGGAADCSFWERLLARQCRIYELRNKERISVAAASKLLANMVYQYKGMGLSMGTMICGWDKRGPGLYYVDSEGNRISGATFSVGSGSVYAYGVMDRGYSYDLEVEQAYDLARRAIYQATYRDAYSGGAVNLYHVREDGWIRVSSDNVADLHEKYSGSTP
Procedure Text: Proteasome inhibition assay
Format: biochemical
Measurement Parameters: read-out: Proteasome Inhibition IC50; Suc-LLVY-AMC 10 μM
Measured Endpoint: IC50

Smiles Record | Measured Endpoint | Value
CC(C)=CCc1c(O)c(CC=C(C)C)c2c(c1O)C(=O)C1=C[C@H]3C[C@@H]4C(C)(C)O[C@@](C/C=C(/C)C(=O)O)(C3=O)[C@@]14O2 | IC50 | > 10 µM
CC(C)=CCc1c2c(c(O)c3c1O[C@]14C(=C[C@@H]5C[C@H]1C(C)(C)O[C@@]4(C/C=C(/C)C(=O)O)C5=O)C3=O)C=CC(C)(C)O2 | IC50 | > 10 µM

Entry O=C1c2c(O)cc(O)cc2O[C@@H](c2ccc(O)cc2)[C@@H]1c1c(O)cc(O)c2c(=O)cc(-c3ccc(O)cc3)oc12 ; IC50 = 4.4 µM

Data credit: paper PMC2923493
